endpoint_name: Ki (nM)
Could you give me the number in nM? Just the number is fine.

# return Ki for CCCCCCCC/C=C\CCCCCCCC(=O)OC(CO)CO , test system: His-tagged GLP-1 (7-36) (Homo sapiens)
# Sequence (P01275 with tags, fused parts or gaps limits assumed): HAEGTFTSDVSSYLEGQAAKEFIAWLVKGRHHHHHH
100
